This collection of values is drawn from ChEMBL document CHEMBL1127427.

test: Compound was evaluated for first order half-life in brain homogenate.; type: ADME, tissue-based
half-life values, listed per item

smiles.text: C[C@]12CC[C@@H]3c4ccc(O)cc4CC[C@H]3[C@@H]1CC[C@@H]2OC(=O)C1=CN(Cc2ccccc2)C=CC1
half-life [h]: 4.8

smiles.text: CCCN1C=CCC(C(=O)O[C@H]2CC[C@H]3[C@@H]4CCc5cc(O)ccc5[C@H]4CC[C@]23C)=C1
half-life [h]: 1.57

smiles.text: CC(C)N1C=CCC(C(=O)O[C@H]2CC[C@H]3[C@@H]4CCc5cc(O)ccc5[C@H]4CC[C@]23C)=C1
half-life [h]: 2

smiles.text: C[C@]12CC[C@@H]3c4ccc(O)cc4CC[C@H]3[C@@H]1CC[C@@H]2OC(=O)C1=CN(CC2CC2)C=CC1
half-life [h]: 1.9

smiles.text: CCN1C=CCC(C(=O)O[C@H]2CC[C@H]3[C@@H]4CCc5cc(O)ccc5[C@H]4CC[C@]23C)=C1
half-life [h]: 3.3

smiles.text: CN1C=CCC(C(=O)O[C@H]2CC[C@H]3[C@@H]4CCc5cc(O)ccc5[C@H]4CC[C@]23C)=C1
half-life [h]: 2.02

smiles.text: C[C@]12CC[C@@H]3c4ccc(O)cc4CC[C@H]3[C@@H]1CC[C@@H]2OC(=O)C1=CN(CCCO)C=CC1
half-life [h]: 2.05

smiles.text: CCCCCCN1C=CCC(C(=O)O[C@H]2CC[C@H]3[C@@H]4CCc5cc(O)ccc5[C@H]4CC[C@]23C)=C1
half-life [h]: 4.32
